Quick reference for IC50 among some compounds
- tested-target: succinate dehydrogenase (Botrytis cinerea, UniProt A0A384J5E4+A0A384J8V8+A0A384JHJ5)
- Construct: succinate-DCPIP reductase assay with KCN
- Sequence (A0A384J5E4 1-300): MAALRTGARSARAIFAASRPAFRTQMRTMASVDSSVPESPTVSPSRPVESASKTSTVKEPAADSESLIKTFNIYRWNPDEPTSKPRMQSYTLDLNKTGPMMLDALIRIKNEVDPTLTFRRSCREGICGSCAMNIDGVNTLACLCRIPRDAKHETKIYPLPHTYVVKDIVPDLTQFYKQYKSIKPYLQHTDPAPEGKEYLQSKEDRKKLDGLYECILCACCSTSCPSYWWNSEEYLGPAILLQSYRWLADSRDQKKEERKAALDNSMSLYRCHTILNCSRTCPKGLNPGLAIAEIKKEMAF
- Sequence (A0A384J8V8 1-189): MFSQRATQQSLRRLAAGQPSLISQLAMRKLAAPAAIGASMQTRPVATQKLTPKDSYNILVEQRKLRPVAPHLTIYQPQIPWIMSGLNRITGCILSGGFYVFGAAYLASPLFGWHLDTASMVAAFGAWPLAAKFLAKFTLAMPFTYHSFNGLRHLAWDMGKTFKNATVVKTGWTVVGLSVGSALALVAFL
- Sequence (A0A384JHJ5 1-192): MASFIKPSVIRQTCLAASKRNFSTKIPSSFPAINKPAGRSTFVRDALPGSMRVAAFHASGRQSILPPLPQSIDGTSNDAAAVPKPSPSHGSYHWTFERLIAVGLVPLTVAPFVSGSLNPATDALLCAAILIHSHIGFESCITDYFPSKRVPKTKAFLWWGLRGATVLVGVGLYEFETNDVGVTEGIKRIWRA
- Sequence (A0A384K456 1-647 partner): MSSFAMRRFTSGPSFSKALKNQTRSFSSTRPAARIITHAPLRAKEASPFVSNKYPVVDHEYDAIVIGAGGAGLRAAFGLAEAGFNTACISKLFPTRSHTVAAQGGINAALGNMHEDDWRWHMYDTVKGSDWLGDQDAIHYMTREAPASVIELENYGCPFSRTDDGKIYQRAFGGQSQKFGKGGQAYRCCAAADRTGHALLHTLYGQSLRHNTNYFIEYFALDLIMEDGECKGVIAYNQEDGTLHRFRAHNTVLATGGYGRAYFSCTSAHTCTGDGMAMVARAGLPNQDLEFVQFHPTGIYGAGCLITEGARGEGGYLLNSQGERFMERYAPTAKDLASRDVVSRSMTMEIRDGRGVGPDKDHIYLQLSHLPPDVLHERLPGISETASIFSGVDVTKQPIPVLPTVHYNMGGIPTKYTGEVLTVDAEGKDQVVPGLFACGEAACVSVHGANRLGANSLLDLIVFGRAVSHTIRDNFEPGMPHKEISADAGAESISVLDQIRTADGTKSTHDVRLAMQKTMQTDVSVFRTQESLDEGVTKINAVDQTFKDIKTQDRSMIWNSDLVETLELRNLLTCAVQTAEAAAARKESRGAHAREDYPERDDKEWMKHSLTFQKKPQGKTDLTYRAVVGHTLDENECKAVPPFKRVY
- test-description: Enzyme inhibition: succinate dehydrogenase activity in Botrytis cinerea mitochondria (DCPIP reduction)
- Type: biochemical
- stated-conditions: concentration required to inhibit the rate of DCPIP reduction by 50%; Botrytis cinerea isolate Nick mitochondria; read-out: I50 (μM conc.)
The response must be a number in µM with no trailing unit.

Guide cases for IC50, answers given:
{"compound": "Cn1cc(C(=O)Nc2ccccc2SC2CCCCC2)c(C(F)(F)F)n1", "result-units": "µM", "IC50": 0.092}
{"compound": "Cn1cc(C(=O)Nc2ccccc2C2CCCCCC2)c(I)n1", "result-units": "µM", "IC50": 0.0047}
{"compound": "Cn1cc(C(=O)Nc2ccc(F)cc2C2CCCCC2)c(C(F)F)n1", "result-units": "µM", "IC50": 0.0054}
{"compound": "Cn1nc(C(F)F)c(C(=O)Nc2ccccc2C2CCCCCC2)c1F", "result-units": "µM", "IC50": 0.0065}
{"compound": "Cc1nn(C)c(Cl)c1C(=O)Nc1ccccc1[C@@H]1C[C@H]2CC[C@@H]1C2 (relative stereo)", "result-units": "µM", "IC50": 0.094}
{"compound": "Cn1cc(C(=O)Nc2ccc(F)cc2C2(C)CCCCC2)c(C(F)F)n1", "result-units": "µM", "IC50": 0.64}

stdin: IC50 lookup needed for CC(C)C1=C(c2ccccc2NC(=O)c2cn(C)nc2C(F)(F)F)CCCC1 , thanks.
stdout: 1.3

stdin: IC50 lookup needed for Cn1nc(C(F)(F)F)c(C(=O)Nc2ccccc2C2CCCCCC2)c1F , thanks.
stdout: 0.0063

stdin: IC50 lookup needed for Cn1cc(C(=O)Nc2ccc(F)cc2C2(C)CCCCC2)c(C(F)(F)F)n1 , thanks.
stdout: 0.8

stdin: IC50 lookup needed for Cn1cc(C(=O)Nc2cc(F)ccc2C2CCCCC2)c(C(F)F)n1 , thanks.
stdout: 0.024

stdin: IC50 lookup needed for Cn1cc(C(=O)Nc2ccc(F)cc2C2CCCCC2)c(C(F)(F)F)n1 , thanks.
stdout: 0.0089

stdin: IC50 lookup needed for Cc1c(C(=S)Nc2ccccc2[C@@H]2C[C@H]3CC[C@@H]2C3)c(Cl)nn1C (relative stereo) , thanks.
stdout: 0.52

stdin: IC50 lookup needed for Cn1cc(C(=O)Nc2ccccc2C2CCC(C(C)(C)C)CC2)c(C(F)F)n1 (centres unmarked) , thanks.
stdout: 0.0047

stdin: IC50 lookup needed for CC1C=C(c2ccccc2NC(=O)c2cn(C)nc2C(F)(F)F)CC1 (centres unmarked) , thanks.
stdout: 0.027
